Reference source: ChEMBL document CHEMBL5729404

log10(IC50) overview
biological target: Receptor-interacting serine/threonine-protein kinase 1 (Homo sapiens, UniProt Q13546)
Sequence (Q13546 whole entry): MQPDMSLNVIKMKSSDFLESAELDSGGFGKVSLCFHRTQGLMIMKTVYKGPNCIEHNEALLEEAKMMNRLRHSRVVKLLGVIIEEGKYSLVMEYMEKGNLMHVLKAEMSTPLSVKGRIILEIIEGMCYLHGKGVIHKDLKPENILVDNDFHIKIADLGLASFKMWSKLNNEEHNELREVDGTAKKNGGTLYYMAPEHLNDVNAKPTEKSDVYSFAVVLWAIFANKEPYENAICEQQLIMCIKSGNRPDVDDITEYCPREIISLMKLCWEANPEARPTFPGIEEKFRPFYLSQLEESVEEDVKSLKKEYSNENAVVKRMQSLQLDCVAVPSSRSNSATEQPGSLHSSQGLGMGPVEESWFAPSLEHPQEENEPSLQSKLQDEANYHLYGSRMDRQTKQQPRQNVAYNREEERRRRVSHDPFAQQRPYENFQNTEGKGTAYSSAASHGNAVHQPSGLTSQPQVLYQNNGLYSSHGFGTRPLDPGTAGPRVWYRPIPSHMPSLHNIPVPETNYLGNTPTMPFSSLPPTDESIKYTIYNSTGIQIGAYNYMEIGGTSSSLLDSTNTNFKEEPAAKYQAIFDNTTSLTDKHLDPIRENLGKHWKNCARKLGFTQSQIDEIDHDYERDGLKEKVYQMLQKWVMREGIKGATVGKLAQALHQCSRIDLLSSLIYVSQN
In plain terms, each number is the log10 of measured IC50 in µM.

Consider the reported log10(IC50) for these compounds:
## Input Consider the compound shown here: "Cc1cccc(Cc2cnn(C(=O)N[C@H]3COc4ccc(Br)cc4N(C)C3=O)c2)n1" What is its recorded log10(IC50)?
## Output -0.98

## Input And then "CN1C(=O)[C@@H](NC(=O)n2cc(Cc3cccc(F)n3)cn2)COc2ccc(Br)cc21" , what is it?
## Output -1.66

## Input And then "CN1C(=O)[C@@H](NC(=O)n2cc(Cc3cccnn3)cn2)COc2ccc(Br)cc21" , what is it?
## Output -0.08

## Input And then "CN1C(=O)[C@@H](NC(=O)n2cc(Cc3ccc(F)nc3)cn2)COc2ccc(Br)cc21" , what is it?
## Output -1.39

## Input And then "CN1C(=O)[C@@H](NC(=O)n2cc(Cc3ccncc3)cn2)COc2ccc(Br)cc21" , what is it?
## Output -0.99

More entries:
## Input Consider the compound shown here: "CN1C(=O)[C@@H](NC(=O)n2cc(Cc3ccccn3)cn2)COc2ccc(Br)cc21" What is its recorded log10(IC50)?
## Output -1.19

## Input And then "CN1C(=O)[C@@H](NC(=O)n2cc(Cc3cccc(C(F)(F)F)n3)cn2)COc2ccc(Br)cc21" , what is it?
## Output -0.77

## Input And then "CN1C(=O)[C@@H](NC(=O)n2cc(Cc3cccnc3)cn2)COc2ccc(Br)cc21" , what is it?
## Output -2.08
